Target: T1, GST–PPARγ fusion protein (purified ligand binding domain of PPARγ)
T1 chain: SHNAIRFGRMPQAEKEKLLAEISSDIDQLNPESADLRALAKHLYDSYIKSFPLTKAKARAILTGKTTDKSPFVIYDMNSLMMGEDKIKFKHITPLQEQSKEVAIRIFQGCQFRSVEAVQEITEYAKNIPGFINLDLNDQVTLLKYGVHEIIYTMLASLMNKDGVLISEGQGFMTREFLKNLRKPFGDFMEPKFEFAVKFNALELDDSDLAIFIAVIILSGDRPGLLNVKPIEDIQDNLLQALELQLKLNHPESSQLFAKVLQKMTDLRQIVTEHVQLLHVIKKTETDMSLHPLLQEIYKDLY
Experiment: FRET or BRET; homogeneous TR-FRET as a1, 12-concentration dose–response of tesaglitazar; the EC50 is of the compound; delta ratio in % of the reference compound at 10 μM (RO4899100 for PPARα, edaglitazone for PPARγ)
Details: both partners purified
Where no end group is shown, it is not given here. The star is where a group is joined. Biotin = O=C1N[C@H]2[C@H](CS[C@H]2CCCCC(=O)*)N1; Ahx = NCCCCCC(=O)O
Kindly state EC50 of tesaglitazar for recruitment for each of the entries shown.
Please answer using a numeric value trailed by its unit.

Query string: Given the entry {Biotin-Ahx}-PKKENNALLRYLLDRDDPSDV (source: synthetic peptide (Jerini or Biosynthan, Berlin)) [RAC3_M3 cofactor peptide (receptor-associated co-activator 3, motif 3)] , report its measured EC50 of tesaglitazar for recruitment.
Result string: 233 nM

Query string: Dear colleague, I am looking for the recorded EC50 of tesaglitazar for recruitment of the following binder: {Biotin-Ahx}-TSGPQTPQAQQKSLLQQLLTE (source: synthetic peptide (Jerini or Biosynthan, Berlin)) [SRC1_M4 cofactor peptide (steroid receptor co-activator 1, motif 4)]
Result string: 25.5 nM

Query string: Fill in the blank: the reported EC50 of tesaglitazar for recruitment of {Biotin-Ahx}-LDASKKKESKDHQLLRYLLDKDEKD (source: synthetic peptide (Jerini or Biosynthan, Berlin)) [SRC1_M3 cofactor peptide (steroid receptor co-activator 1, motif 3)] is ____.
Result string: 196 nM

Query string: Which EC50 of tesaglitazar for recruitment reading was recorded for the binder {Biotin-Ahx}-SGNLVPDAASKHKQLSELLRGGSGS (source: synthetic peptide (Jerini or Biosynthan, Berlin)) [CBP cofactor peptide (cAMP responsive element binding protein (CREB)-binding protein)] ?
Result string: 13.9 nM

Query string: Requested read-out: EC50 of tesaglitazar for recruitment. Entry: {Biotin-Ahx}-SRLHDSKGQTKLLQLLTTKSD (transcriptional intermediary factor 2 (TIF2), motif 1, residues 630-650; source: synthetic peptide (Jerini or Biosynthan, Berlin)) [TIF2_M1 cofactor peptide (transcriptional intermediary factor 2, motif 1)]
Result string: 274 nM

Query string: Given the entry {Biotin-Ahx}-GNTKNHPMLMNLLKDNPAQDF (thyroid hormone receptor-associated protein complex 220 kDa component (TRAP220), motif 2, residues 637-657; also called TRAP220_M2; TRAP220 M2; source: synthetic peptide (Jerini or Biosynthan, Berlin)) , report its measured EC50 of tesaglitazar for recruitment.
Result string: 31.6 nM

Query string: Endpoint output: EC50 of tesaglitazar for recruitment of {Biotin-Ahx}-DSKYSQTSHKLVQLLTTTAEQQLRH (source: synthetic peptide (Jerini or Biosynthan, Berlin)) [SRC1_M1 cofactor peptide (steroid receptor co-activator 1, motif 1)] . Value?
Result string: 226 nM

Query string: # query: EC50 of tesaglitazar for recruitment of entry {Biotin-Ahx}-SNMHGSLLQEKHRILHKLLQNGNSP (source: synthetic peptide (Jerini or Biosynthan, Berlin)) [RAC3_M2 cofactor peptide (receptor-associated co-activator 3, motif 2)]
Result string: 110 nM

Query string: Quick one: EC50 of tesaglitazar for recruitment for {Biotin-Ahx}-CPSSHSSLTERHKILHRLLQEGSPS (source: synthetic peptide (Jerini or Biosynthan, Berlin)) [SRC1_M2 cofactor peptide (steroid receptor co-activator 1, motif 2)] ?
Result string: 24.4 nM
